Every entry's value here was drawn from PubChem BioAssay AID1159580.

- PROTOCOL TEXT: chemical genetic growth profiling, strain panel (AID 1159580);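 also: tested at 20 µM; growth read once vehicle control cultures reached saturation at 30 °C; 1 = growth at the plate median or of vehicle wells; lower values mean less growth of the strain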
- SETUP CONDITIONS: S. cerevisiae deletion strains, growth OD, locus YKL101W, strain HSL1, stronger effect = lower value
Among all 5,500 compounds or so, about 2,000 (36%) were called active. Inconclusive results (about 18%) are left out. The list shows a part of the results.
Below, each entry is listed with its recorded normalized growth.
Simply state the number, no unit and no words.

Give the measured normalized growth of COC(=O)c1sccc1S(=O)(=O)Nc1cc(C(F)(F)F)cc(C(F)(F)F)c1 .
0.958

Note, next up: FC(F)(F)c1ccncc1-c1nc(-c2ccc(Cl)cc2)cs1
0.919

Note, next up: CC1SC(c2cccnc2)N(c2ccc(F)cc2F)C1=O (stereo not drawn)
1.02

Note, next up: CC(C)OC(=O)Nc1cc(Cl)cc(Cl)c1
0.888

Note, next up: NNC(=O)c1oc2nc(-c3ccccc3)cc(-c3ccccc3)c2c1N
0.937

Note, next up: Cn1ncc(-c2nc(-c3ccc(Cl)cc3)cs2)c1N
0.947

Note, next up: Cc1oc(C(C)(C)C)cc1-c1cc(NC(=O)c2ccccc2)n[nH]1
0.878

Note, next up: COc1ccc(OC)c2nc3c(nc12)C(=O)c1ccccc1-3
0.985

---
Give the measured normalized growth of CC1SC(c2cccnc2)N(c2ccc(Cl)cc2)C1=O (stereo not drawn) .
0.779

Note, next up: Cc1csc2ncnc(N3CCN(C(=S)Nc4ccc(C(F)(F)F)cc4)CC3)c12
0.959
